src = paper PMC2970552

Molecular target: T1, FXR2 tandem Tudor domains (amino acids 14 to 137 of Fragile X Mental Retardation Syndrome-related Protein 2) (UniProt P51116 14-137)
T1 construct: Fragile X Mental Retardation Syndrome-related Protein 2 (FXR2), amino acids 14 to 137, tandem Tudor domains; residues 13 to 136 reported for the crystal structure; Cloned in pET-28a-MHL as His6-TEV-FXR2; the purification tag was not removed from FXR2; The methods describe expression in minimal media with selenomethionine; also called FXR2 Tudor domain; NLS of FXR2; source: E. coli BL21 derivative …
T1 sequence (P51116 14-137): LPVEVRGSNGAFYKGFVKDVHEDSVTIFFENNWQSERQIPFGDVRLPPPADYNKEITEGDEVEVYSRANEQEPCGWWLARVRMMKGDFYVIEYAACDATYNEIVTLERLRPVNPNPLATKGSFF
Assay: fluorescence polarisation; fluoresceinated peptide at 100 nM; FXR1 (stock 1.03 mM) or FXR2 (stock 2.4 mM) in serial twofold dilutions from 1/2 to 1/1024; 20 mM Tris-Cl pH 8.0, 50 mM NaCl, 1 mM DTT; room temperature, 30 minutes
Conditions: both partners purified
Where no end group is shown, it is not given here. Me3 = trimethyl-lysine (Kme3); Me2 = dimethyl-lysine (Kme2)
quantity measured: pKd
Numbers only, as −log10 of the molar value.

GGAKRHRKVLRDN (also: fluorescein, position not given here, histone H4 tail peptide around K20, unmethylated; also called H4K20Me0; source: synthetic peptide (Tufts University Core Services)) [H4K20 peptide (unmethylated histone H4 peptide)] : 2.98
GGAKRHRK(Me2)VLRD (histone H4 tail peptide, K20 dimethylated; source: synthetic peptide (Tufts University Core Services)) [H4K20me2 peptide] : 3.20

input: Give the measured pKd of GGAKRHRK(Me3)VLRD (also: fluorescein, position not given here, histone H4 tail peptide, K20 trimethylated; source: synthetic peptide (Tufts University Core Services)) [H4K20me3 peptide, fluoresceinated] .
output: 3.35
